# Tested on: SK-OV-3
# assay-method-text: NCI tumour cell line growth inhibition, 48 h
Activity calls are given as the source filed them. Rule as the data show it: active = GI50 up to about 1.1 µM and inactive = higher.
measured-attribute: GI50

INPUT: Query for SK-OV-3: what GI50 does the record show for Nc1nccc2c1ncn2C1C=C(CO)C(O)C1O (stereo not drawn) ?
OUTPUT: > 100 µM (inactive)

INPUT: Query for SK-OV-3: what GI50 does the record show for c1ccc(/N=C2\SC(=NNc3ccccc3)S\C2=N/c2ccccc2)cc1 ?
OUTPUT: > 100 µM (inactive)

INPUT: Query for SK-OV-3: what GI50 does the record show for C/N=C(\S)N/N=C/C(C)=N/N/C(S)=N/C ?
OUTPUT: > 100 µM (inactive)

INPUT: Query for SK-OV-3: what GI50 does the record show for CC(C)(Cl)C(Br)CCC(C)(Cl)C(Br)CBr (stereo not drawn) ?
OUTPUT: 39.2 µM (inactive)

INPUT: Query for SK-OV-3: what GI50 does the record show for COc1cc(OC)c2c3c(OC)cc(OC)c4c(=O)c(O)c(C[C@@H](C)O)c(c5c(C[C@@H](C)O)c(O)c(=O)c1c25)c43 ?
OUTPUT: 62.2 µM (inactive)

INPUT: Query for SK-OV-3: what GI50 does the record show for c1cc(C2O[C@H]3CCCN3[C@@H]2c2ccncc2)ccn1 (stereo partly drawn) ?
OUTPUT: > 100 µM (inactive)

INPUT: Query for SK-OV-3: what GI50 does the record show for NC(=O)C(=Cc1ccc(C(O)P(=O)(O)O)cc1)C(N)=O (stereo not drawn) ?
OUTPUT: > 100 µM (inactive)

INPUT: Query for SK-OV-3: what GI50 does the record show for CN(C)C=C1C(Cl)=C(C=O)CC(C=O)=C1Cl ?
OUTPUT: 29.4 µM (inactive)

INPUT: Query for SK-OV-3: what GI50 does the record show for COC(=O)[C@@H]1C[C@@H]2c3ccccc3N(S(=O)(=O)c3ccccc3)[C@@H]2N1C(=O)OC ?
OUTPUT: > 100 µM (inactive)

INPUT: Query for SK-OV-3: what GI50 does the record show for CCOC(=O)C1(Br)S(=O)(=O)OCCOS1(=O)=O ?
OUTPUT: > 100 µM (inactive)

INPUT: Query for SK-OV-3: what GI50 does the record show for Cc1nc2c(ccc3[nH]c4ccccc4c32)s1 ?
OUTPUT: 22.3 µM (inactive)

INPUT: Query for SK-OV-3: what GI50 does the record show for CC(C)(C)OC(=O)N1NC(c2ccccc2)CC1c1ccccc1 (stereo not drawn) ?
OUTPUT: 37.6 µM (inactive)

INPUT: Query for SK-OV-3: what GI50 does the record show for CC(C)(O)CCC(O)C(C)(O)C1CCC2(O)C3=CC(=O)C4(O)CC(O)C(O)CC4(C)C3CCC12C.CC(C)(O)CCC(O)C(C)(O)C1CCC2(O)C3=CC(=O)C4CC(O)C(O)CC4(C)C3CCC12C (stereo not drawn) ?
OUTPUT: > 100 µM (inactive)

Values compiled from ChEMBL document CHEMBL1201862.
